# TESTED_SYSTEM: human insulin-like growth factor-II (IGF-II) (human, UniProt P01344 25-91)
# ASSAY_SUMMARY: cell-based or functional assay
METRIC: % MAX Activation, mean (n = 2), IGF-II pTYR of hIGF-IR in NIH3T3 cells (%)
Your answer is read as %, so omit the unit and give the number.

Task: Supply % MAX Activation, mean (n = 2), IGF-II pTYR of hIGF-IR in NIH3T3 cells value. Item: mAb 7.158.2 (antibody, V domains shown, Kappa light chain (L5/JK3); also called 7.158.1; 7_158_1) VH: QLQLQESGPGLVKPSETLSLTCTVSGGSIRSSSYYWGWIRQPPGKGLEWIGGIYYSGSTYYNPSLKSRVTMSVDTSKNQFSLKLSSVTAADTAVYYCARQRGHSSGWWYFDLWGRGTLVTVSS VL: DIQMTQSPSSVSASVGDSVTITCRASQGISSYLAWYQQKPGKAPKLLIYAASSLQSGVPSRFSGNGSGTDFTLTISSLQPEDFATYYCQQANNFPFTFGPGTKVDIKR
Result: 33.7

// provenance: patent US20070196376A1
